# Beta-2 adrenergic receptor (Homo sapiens): AC50 values follow; also: assay procedure not described here
# Sequence (P07550 whole entry): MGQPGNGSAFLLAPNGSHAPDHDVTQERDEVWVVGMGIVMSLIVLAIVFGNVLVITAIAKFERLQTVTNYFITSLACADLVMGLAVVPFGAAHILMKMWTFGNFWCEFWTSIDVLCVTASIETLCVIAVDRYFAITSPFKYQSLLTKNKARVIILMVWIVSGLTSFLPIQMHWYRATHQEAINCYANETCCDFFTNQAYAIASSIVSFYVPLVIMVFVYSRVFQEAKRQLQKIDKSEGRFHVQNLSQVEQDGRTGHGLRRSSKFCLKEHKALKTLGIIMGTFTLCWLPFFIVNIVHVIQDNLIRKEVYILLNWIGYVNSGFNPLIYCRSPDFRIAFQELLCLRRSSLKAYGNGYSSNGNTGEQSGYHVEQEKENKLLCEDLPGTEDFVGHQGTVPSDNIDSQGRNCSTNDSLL

These solved cases illustrate the format of a correct answer.
1. CN(C)CCOCC(=O)NC12CC3CC(CC(C3)C1)C2 ... > 30 µM
2. COc1cc(N)cn[n+]1-c1ccccc1 [AMEZINIUM METILSULFATE] ... > 30 µM
3. CN(C)[C@@H]1C(O)=C(C(=O)NCN2CCCC2)C(=O)[C@@]2(O)C(O)=C3C(=O)c4c(O)cccc4[C@@](C)(O)[C@H]3C[C@@H]12 ... > 10 µM
4. COC(=O)CCc1ccc(OCC(O)CNC(C)C)cc1 (stereo unspecified) ... 27 µM
5. CCN(CC)C(C)C(=O)c1ccccc1 (stereo unspecified) ... > 10 µM

Go through the list and state AC50 for each entry.
1. CO/N=C(\C(=O)N[C@@H]1C(=O)N2C(C(=O)[O-])=C(C[n+]3ccc(N)n3CCO)CS[C@H]12)c1csc(N)n1
2. CC(=O)N1CCN(c2ccc(OCC3COC(Cn4ccnc4)(c4ccc(Cl)cc4Cl)O3)cc2)CC1 (stereo unspecified)
3. N=C(N)NC(=O)c1nc(Cl)c(N)nc1N [AMILORIDE]
4. CC(NC(C)(C)C)C(=O)c1cccc(Cl)c1 (stereo unspecified)
5. CCC(NC(C)C)C(O)c1ccc(O)c(O)c1 (stereo unspecified)
6. CC1=C(/C=C/C(C)=C/C=C/C(C)=C/C(=O)Oc2c(C)c(C)c3c(c2C)CCC(C)(CCCC(C)CCCC(C)CCCC(C)C)O3)C(C)(C)CCC1 (stereo unspecified)

1: > 30 µM; 2: > 10 µM; 3: > 30 µM; 4: > 10 µM; 5: 5.43 µM; 6: > 30 µM

Go through the list and state AC50 for each entry.
1. CC1Cc2ccccc2N1NC(=O)c1ccc(Cl)c(S(N)(=O)=O)c1 (stereo unspecified) [INDAPAMIDE]
2. CC(=O)OCC(=O)[C@@]1(O)CC[C@H]2[C@@H]3CCC4=CC(=O)CC[C@]4(C)[C@@]3(F)[C@@H](O)C[C@@]21C [FLUDROCORTISONE ACETATE]
3. CCOC(=O)O[C@]1(C(=O)COC(=O)CC)CC[C@H]2[C@@H]3CCC4=CC(=O)C=C[C@]4(C)[C@H]3[C@@H](O)C[C@@]21C [PREDNICARBATE]
4. COc1ccc(-c2cc(=S)ss2)cc1
5. CCOc1ccccc1OCCN[C@H](C)Cc1ccc(OC)c(S(N)(=O)=O)c1

> 10 µM
> 30 µM
> 10 µM
13 µM
2.2 µM

----------
Molecular target: 3',5'-cyclic-AMP phosphodiesterase 4A (Homo sapiens, UniProt P27815); also: assay procedure not described here
Sequence (P27815 whole entry): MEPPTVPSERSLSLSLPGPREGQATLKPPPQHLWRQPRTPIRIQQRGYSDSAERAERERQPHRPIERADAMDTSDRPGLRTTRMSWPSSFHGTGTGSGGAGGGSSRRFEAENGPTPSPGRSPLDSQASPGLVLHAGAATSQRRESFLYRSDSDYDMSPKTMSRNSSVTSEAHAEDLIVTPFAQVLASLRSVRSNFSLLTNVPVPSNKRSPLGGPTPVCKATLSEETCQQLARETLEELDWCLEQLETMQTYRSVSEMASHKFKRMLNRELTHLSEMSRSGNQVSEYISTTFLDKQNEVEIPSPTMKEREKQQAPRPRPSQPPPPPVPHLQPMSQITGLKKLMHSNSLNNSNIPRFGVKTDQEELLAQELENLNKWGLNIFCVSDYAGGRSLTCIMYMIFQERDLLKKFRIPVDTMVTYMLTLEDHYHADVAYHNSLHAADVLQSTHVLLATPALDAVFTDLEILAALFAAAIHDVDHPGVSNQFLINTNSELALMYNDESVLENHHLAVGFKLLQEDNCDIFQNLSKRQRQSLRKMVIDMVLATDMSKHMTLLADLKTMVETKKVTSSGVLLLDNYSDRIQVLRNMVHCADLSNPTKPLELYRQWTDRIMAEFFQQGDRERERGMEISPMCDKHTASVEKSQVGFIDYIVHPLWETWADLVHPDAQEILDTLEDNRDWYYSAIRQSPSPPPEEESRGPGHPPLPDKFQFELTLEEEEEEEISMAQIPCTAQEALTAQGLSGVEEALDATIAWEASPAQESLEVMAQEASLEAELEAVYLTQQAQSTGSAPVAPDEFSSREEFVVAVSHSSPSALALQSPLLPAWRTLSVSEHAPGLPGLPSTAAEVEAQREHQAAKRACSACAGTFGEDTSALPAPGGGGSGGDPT
Format: functional
observed.property: AC50

These solved cases illustrate the format of a correct answer.
1) CC(=O)Nc1ccc(/C=N/NC(N)=S)cc1 [AMITHIOZONE] ... > 30 µM
2) Cc1cccc(C)c1NC(=O)CN(CC(=O)O)CC(=O)O [LIDOFENIN] ... > 30 µM
3) CC(C)(Oc1ccc(C(=O)c2ccc(Cl)cc2)cc1)C(=O)O [FENOFIBRIC ACID] ... > 3 µM
4) COc1c(OCCCN2CCOCC2)ccc2c1N=C(NC(=O)c1cnc(N)nc1)N1CCN=C21 [COPANLISIB] ... > 30 µM
5) O=C(Cc1cccs1)N[C@@H]1C(=O)N2C(C(=O)[O-])=C(C[n+]3ccccc3)CS[C@H]12 [CEPHALORIDINE] ... > 3 µM
6) CC#CC(=O)N1CCC[C@H]1c1nc(-c2ccc(C(=O)Nc3ccccn3)cc2)c2c(N)nccn12 [ACALABRUTINIB] ... > 30 µM
7) Cc1ccc2c([nH]c(=O)c3c(=O)cc(C(=O)OCCC(C)C)oc32)c1C ... > 30 µM
8) COc1cccc2c1C(=O)c1c(O)c3c(c(O)c1C2=O)C[C@@](O)(C(=O)CO)C[C@@H]3O[C@H]1C[C@H](N)[C@H](O[C@@H]2CCCCO2)[C@H](C)O1 [PIRARUBICIN] ... > 30 µM
9) C[C@@H]1O[C@@H](O[C@H]2C[C@@H](O)[C@]3(CO)[C@H]4[C@H](O)C[C@]5(C)[C@@H](C6=CC(=O)OC6)CC[C@]5(O)[C@@H]4CC[C@]3(O)C2)[C@H](O)[C@H](O)[C@H]1O [OUABAIN] ... > 30 µM
10) Cn1c(CCCC(=O)O)nc2cc(N(CCCl)CCCl)ccc21 [BENDAMUSTINE] ... > 30 µM

Go through the list and state AC50 for each entry.
1. CN1CCN(C(c2ccccc2)c2ccc(Cl)cc2)CC1 (stereo not drawn) [CHLORCYCLIZINE]
2. Cc1c(C)c2c(c(C)c1O)CCC(C)(COc1ccc(CC3SC(=O)NC3=O)cc1)O2 (stereo not drawn) [TROGLITAZONE]
3. Nc1ccc(C(=O)NCC(=O)O)cc1 [AMINOHIPPURIC ACID]

1: > 30 µM; 2: 4.9 µM; 3: > 30 µM

Go through the list and state AC50 for each entry.
1. CN1C(C(=O)Nc2ccccn2)=C(OC(=O)/C=C/c2ccccc2)c2ccccc2S1(=O)=O [PIROXICAM CINNAMATE]
2. CCOc1ccc(Cc2nccc3cc(OCC)c(OCC)cc23)cc1OCC [ETHAVERINE]
3. C#CCN(C)Cc1ccccc1 [PARGYLINE]
4. COC(=O)N(C)c1c(N)nc(-c2nn(Cc3ccccc3F)c3ncccc23)nc1N [RIOCIGUAT]
5. COc1ccc(C(=O)c2ccccc2)c(O)c1 [OXYBENZONE]
6. CC1(C)S[C@@H]2[C@H](NC(=O)[C@H](NC(=O)c3cnc4cccnc4c3O)c3ccccc3)C(=O)N2[C@H]1C(=O)O [APALCILLIN]
7. NC(=O)N/N=C/c1ccc([N+](=O)[O-])o1 [NITROFURAZONE]

1. > 30 µM
2. 0.466 µM
3. > 30 µM
4. > 30 µM
5. 18.1 µM
6. > 30 µM
7. > 30 µM

Go through the list and state AC50 for each entry.
1. Cc1ccc(Cl)c(Nc2ccccc2C(=O)O)c1Cl [MECLOFENAMIC ACID]
2. CO[C@@]1(NC(=O)C(C(=O)O)c2ccc(O)cc2)C(=O)N2C(C(=O)O)=C(CSc3nnnn3C)CO[C@@H]21 (stereo partly drawn) [MOXALACTAM]
3. NS(=O)(=O)c1cc2c(cc1Cl)NC(C(Cl)Cl)NS2(=O)=O (stereo not drawn) [TRICHLORMETHIAZIDE]

1. 25.5 µM
2. > 30 µM
3. > 30 µM
